- Measurement Target: CXCR4 (Homo sapiens)
- Sequence (P61073 whole entry): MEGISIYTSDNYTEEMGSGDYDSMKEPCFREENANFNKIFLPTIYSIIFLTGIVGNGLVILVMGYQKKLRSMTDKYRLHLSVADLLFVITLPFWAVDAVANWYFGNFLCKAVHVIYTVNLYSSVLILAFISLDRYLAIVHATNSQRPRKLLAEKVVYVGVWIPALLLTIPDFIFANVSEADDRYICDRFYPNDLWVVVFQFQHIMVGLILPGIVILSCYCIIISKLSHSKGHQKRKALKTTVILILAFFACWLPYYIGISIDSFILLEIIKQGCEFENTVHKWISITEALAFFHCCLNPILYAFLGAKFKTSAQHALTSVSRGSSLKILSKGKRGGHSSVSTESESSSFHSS
- Assay Remarks: Calcium imaging ((Ca)i mobilization) assay, fura-2, C8161 melanoma cells
- Type: cell-based
- Set-up: human melanoma cell line C8161 was initially used, which expresses numerous human CXCR4 receptors; endogenous in cells; host or cells: C8161 human melanoma cells
- Test Settings: Table 1; calcium imaging behavior
Measurement Kind: Ca^2+ Assay

[Q] # lookup: Ca^2+ Assay of CCCn1nc(C(=O)N2CCCCC2)c2c1CCC(NCCc1cccnc1)C2 (centres unmarked)
[A] Antagonist

[Q] Return reported Ca^2+ Assay; argument: CN(C)CCNC1CCc2c(c(C(=O)N(C)Cc3ccccc3)nn2C)C1 (centres unmarked)
[A] Antagonist

[Q] Please give the measured Ca^2+ Assay for this molecule: CCCn1nc(C(=O)N(C)C)c2c1CCC(NCc1ccc(F)cc1)C2 (centres unmarked)
[A] Agonist

[Q] Give its Ca^2+ Assay value. Item: CCCn1nc(C(=O)N2CCCCC2)c2c1CCC(NCCc1ccncc1)C2 (centres unmarked)
[A] Agonist

[Q] Given the entry COC(=O)c1c(NC(=O)[C@H]2CCOC2)c2cc(NC[C@H](C)Cc3ccc4c(c3)OCO4)cnc2n1CCCc1ccccc1 , report its measured Ca^2+ Assay.
[A] Antagonist

[Q] Can you share its Ca^2+ Assay? I mean this molecule: COCCNC(=O)c1nn(CCC(C)C)c2c1CN(Cc1ncc[nH]1)CC2
[A] Agonist

[Q] Would you kindly share the measured Ca^2+ Assay for CCCn1nc(C(=O)N2CCCCC2)c2c1CCC(NCCCN1CCOCC1)C2 (centres unmarked) ?
[A] Agonist

API: the following record is the query input.
[Q] May I ask what Ca^2+ Assay has been recorded for CCCn1nc(C(=O)N2CCCCC2)c2c1CCC(NCCCN1CCCC1=O)C2 (centres unmarked) ?
[A] Agonist

---

- Measurement Target: UniProt:P61073
- Assay Remarks: Calcium imaging ((Ca)i mobilization) assay, fura-2, C8161 melanoma cells
- Type: cell-based
- Set-up: human melanoma cell line C8161 was initially used, which expresses numerous human CXCR4 receptors; endogenous in cells; host or cells: C8161 human melanoma cells
- Test Settings: C8161 cells; compounds 10 μM where stated, SDF-1 100 nM
Measurement Kind: own (Ca)i response (agonist effect)

Solved cases below.
[Q] Record request: own (Ca)i response (agonist effect) value, item CCCn1nc(C(=O)N2CCCCC2)c2c1CCC(NCCCN1CCOCC1)C2 (stereo not drawn)
[A] robust agonist activity

[Q] Would you kindly share the measured own (Ca)i response (agonist effect) for CCCn1nc(C(=O)N2CCCCC2)c2c1CCC(NCc1ccc(F)cc1)C2 (stereo not drawn) ?
[A] robust calcium response

[Q] Sample CCCn1nc(C(=O)N2CCCCC2)c2c1CCC(NCCc1cccnc1)C2 (stereo not drawn) — what was its own (Ca)i response (agonist effect)?
[A] robust agonist activity

[Q] Returns the measured own (Ca)i response (agonist effect) for the input molecule. Input: Cn1nc(C(=O)N2CCCCC2)c2c1CCC(NCc1ccc(F)cc1)C2 (stereo not drawn)
[A] robust calcium response

[Q] # input molecule: CCCn1nc(C(=O)N(C)Cc2ccccc2)c2c1CCC(NCCCN1CCOCC1)C2 (stereo not drawn) ; wanted: its own (Ca)i response (agonist effect)
[A] robust calcium response

---
[Q] Looking for the measured own (Ca)i response (agonist effect) of CCCn1nc(C(=O)N(C)C)c2c1CCC(NCc1ccc(F)cc1)C2 (stereo not drawn) , can you help?
[A] robust agonist activity

[Q] Find the recorded own (Ca)i response (agonist effect) belonging to CCCn1nc(C(=O)N(C)C)c2c1CCC(NCCc1cccnc1)C2 (stereo not drawn) and report it.
[A] robust calcium response

[Q] Returns the measured own (Ca)i response (agonist effect) for the input molecule. Input: CCCn1nc(C(=O)N(C)C)c2c1CCC(NCCCN1CCCC1=O)C2 (stereo not drawn)
[A] robust calcium response

[Q] Item under review: CCCn1nc(C(=O)N(C)Cc2ccccc2)c2c1CCC(NCc1ccc(F)cc1)C2 (stereo not drawn) . Reported own (Ca)i response (agonist effect)?
[A] robust calcium response
